From: ChEMBL document CHEMBL1144843

Experiment: Half life in rat at 56.7 umol/kg, po
Format: ADME, organism-based
Conditions: in vivo

{"columns": ["Smiles representation", "half-life"],
 "data": [
  ["CCN1CCN(Cc2cnc(-c3ccc(C(=O)Nc4ccccc4N)cc3)c(C#N)c2)CC1", "3.2 h"]
]}

====

Assay: Half life in Beagle dog at 0.8 umol/kg, iv
Type: ADME, organism-based, Canis lupus familiaris
Details: in vivo
Observable: half-life

{"columns": ["Smiles representation", "Observable", "Measured value"],
 "data": [
  ["N#Cc1cc(CN2CCC2)cnc1-c1ccc(C(=O)Nc2ccccc2N)cc1", "half-life", "1.9 h"]
]}
